system: LOX IMVI; assay: Cytotoxicity against human LOXIMVI cells; type: functional
GI50 values, listed per item
Readout Kind: GI50 (µM)

Structure Smiles String: O=C(CCC1=CCN(CCc2cccc3ccccc23)C1=O)NO
Recorded Measurement: 3.71

Structure Smiles String: O=C(CCC1=CCN(Cc2ccc3ccccc3c2)C1=O)NO
Recorded Measurement: 7.98

Structure Smiles String: O=C(CCC1=CCCN(CCc2ccccc2)C1=O)NO
Recorded Measurement: 5.84

Structure Smiles String: O=C(CCC1=CCN(CCCc2ccccc2)C1=O)NO
Recorded Measurement: 4.52

Structure Smiles String: O=C(CCC1=CCN(CCc2ccccc2)C1=O)NO
Recorded Measurement: 30

Structure Smiles String: O=C(CCC1=CCCN(Cc2ccc3ccccc3c2)C1=O)NO
Recorded Measurement: 30

Structure Smiles String: O=C(CCC1=CCN(CCCc2ccc3ccccc3c2)C1=O)NO
Recorded Measurement: 0.82

Structure Smiles String: O=C(CCC1=CCCN(Cc2ccccc2)C1=O)NO
Recorded Measurement: 30

Structure Smiles String: O=C(CCC1=CCN(CCc2ccc3ccccc3c2)C1=O)NO
Recorded Measurement: 0.61

Structure Smiles String: O=C(CCC1=CCCN(CCc2ccc3ccccc3c2)C1=O)NO
Recorded Measurement: 0.56

Structure Smiles String: O=C(CCC1=CCN(Cc2ccccc2)C1=O)NO
Recorded Measurement: 30
